System: Human immunodeficiency virus 1
assay-procedure: Antiviral activity against wild type HIV1 LAI infected in human MT4 cells assessed as protection against virus-induced cytopathogenicity after 4 days by MTT assay
Assay type: functional, organism-based
test-conditions: Human immunodeficiency virus 1, LAI, MT4, 96 h
Would you mind telling me the reported EC50 of each entry?
Field: numeric (nM). Do not append units.

Looking up Cc1ccnc2c1NC(=O)c1cccnc1N2C1CC1 , I see its EC50 listed as 102

The molecule listed as Cc1cc(C#N)cc(C)c1Oc1nc(Nc2ccc(C#N)cc2)nc2ccccc12 has a reported EC50 of 2.3

For record COc1cc(C#N)cc(Cl)c1Oc1nc(Nc2ccc(C#N)cc2)nc2ccccc12 the listed EC50 is 5.4

The molecule listed as CC(C)Nc1cccnc1N1CCN(C(=O)c2cc3cc(NS(C)(=O)=O)ccc3[nH]2)CC1 has a reported EC50 of 610
